# TARGET_SYSTEM: Estrogen receptor (Homo sapiens)
# TEST: qHTS assay to identify small molecule antagonists of the estrogen receptor alpha (ER-alpha) signaling pathway (AID 743069); also: potency is read from the fitted curve at half-maximal effect
# TEST_SETTINGS: HEK293 ER-alpha-UAS-bla, beta-lactamase ratio, antagonist mode; series mostly up to 69.4 µM
Active and inactive are the calls of the source. Calls follow the shape of the dose curve; as a rule, active = well fitted curve in the direction sought with a large enough effect in the signal ratio in the repeat runs (not every such curve was filed as active); inconclusive = weak or mixed curves, or effect the other way; inactive = no such curve, though single readings can be large or run the other way; the % refers to the signal ratio.
MEASUREMENT_KIND: Potency

{"COMPOUND": "O=[N+]([O-])c1cccc(C(F)(F)F)c1", "RESULT_VALUE": "inactive"}
{"COMPOUND": "CCOc1ccc2ccccc2c1C(=O)N[C@@H]1C(=O)N2[C@@H]1SC(C)(C)[C@@H]2C(=O)O", "RESULT_VALUE": "inactive"}
{"COMPOUND": "CCCCC(CC)CN1CN(CC(CC)CCCC)CC(C)(N)C1 (centres undefined)", "RESULT_VALUE": "inactive"}
{"COMPOUND": "CC[N+](CC)(CC)CCOc1ccc(/C=C/c2ccccc2)cc1", "RESULT_VALUE": "5.35 µM [inconclusive] (active)"}
{"COMPOUND": "CCc1cccc(CC)c1NC(=O)CN(CC(=O)O)CC(=O)O", "RESULT_VALUE": "inactive"}

# input Identify Potency associated with the compound `[Cu+]`
# output inactive

# input Identify Potency associated with the compound `c1ccsc1`
# output inactive

# input Identify Potency associated with the compound `O=C(O)c1cccc(C(F)(F)F)c1`
# output inactive

# input Identify Potency associated with the compound `CC(C)(C)NSc1nc2ccccc2s1`
# output inactive

# input Identify Potency associated with the compound `O=C(O)c1ccc2cc(C(=O)O)ccc2c1`
# output inactive

---

# TEST: qHTS assay to identify small molecule antagonists of the estrogen receptor alpha (ER-alpha) signaling pathway using the BG1 cell line - cell viability counter screen (AID 743081);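 also: compound given together with 17beta-estradiol as the ER stimulus; nearly all actives have a fitted effect of over 45% in size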
# TEST_SETTINGS: BG1Luc4E2 viability, CellTiter-Fluor, 22 h; series mostly up to 70.3 µM
Inconclusive results are not listed. Activity calls are given as the source filed them. Calls come from the whole dose curve; as a rule, active = well fitted cell-killing curve with a large enough effect in the repeat runs; inconclusive = weak or mixed curves, or effect the other way; inactive = flat fitted curve, though single readings scatter.
Please reply with one of these outcomes: t for active, f for inactive

{"MOLECULE": "O=[N+]([O-])c1cccc(C(F)(F)F)c1", "ASSIGNED_CATEGORY": "f"}
{"MOLECULE": "OC12N=C(c3ccccc3)SC1Cc1cc(Cl)ccc12 (stereo unspecified)", "ASSIGNED_CATEGORY": "f"}
{"MOLECULE": "C=CC(C)(CCC=C(C)C)OC=O (stereo unspecified)", "ASSIGNED_CATEGORY": "f"}

# input So what was the verdict on `O=C(Nc1ccc2c(O)c(N=Nc3ccc(N=Nc4ccc(S(=O)(=O)O)cc4)cc3)c(S(=O)(=O)O)cc2c1)c1ccccc1` in this test?
# output t

# input So what was the verdict on `COc1cc2nc(N3CCN(C(=O)c4ccco4)CC3)nc(N)c2cc1OC` in this test?
# output f

# input So what was the verdict on `Nc1nc(N)nc(-c2cc(Cl)ccc2Cl)n1` in this test?
# output f

---

# TARGET_SYSTEM: Estrogen receptor (Homo sapiens)
# TEST: qHTS assay to identify small molecule agonists of the estrogen receptor alpha (ER-alpha) signaling pathway (AID 743075);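 also: HEK293 GripTite cells with ER-alpha and UAS-driven beta-lactamase reporter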
# TEST_SETTINGS: HEK293 ER-alpha-UAS-bla, beta-lactamase FRET ratio, 18 h; series mostly up to 70.1 µM
Active and inactive are the calls of the source. Calls come from the whole dose curve.
Please reply with one of these outcomes: Yes for active, No for inactive

{"MOLECULE": "CN(C)c1ccc(C(=C2C=CC(=[N+](C)C)C=C2)c2ccc(N(C)C)cc2)cc1", "ASSIGNED_CATEGORY": "Yes"}
{"MOLECULE": "OC[C@@H](O)[C@@H](O)CO", "ASSIGNED_CATEGORY": "No"}
{"MOLECULE": "CCN(CC)C(=O)c1cc(S(=O)(=O)Cc2ccccc2)c(N2CCC(c3ccccc3)CC2)cc1N(CC)CCN(C)C", "ASSIGNED_CATEGORY": "No"}
{"MOLECULE": "CC(C)NC[C@@H](O)COc1ccc(CC(N)=O)cc1", "ASSIGNED_CATEGORY": "No"}
{"MOLECULE": "CC(=O)CC(=O)Nc1ccc(S(=O)(=O)O)cc1", "ASSIGNED_CATEGORY": "No"}

# input So what was the verdict on `Cc1c(C)c2c(c(C)c1OC(=O)c1cccnc1)CC[C@@](C)(CCC[C@H](C)CCC[C@H](C)CCCC(C)C)O2` in this test?
# output No

# input So what was the verdict on `C=C(C)c1cccc(C(=C)C)c1` in this test?
# output No

# input So what was the verdict on `Oc1cc(Cl)cc(Cl)c1Cl` in this test?
# output No

# input So what was the verdict on `[Cl][Pt-2]([Cl])([Cl])[Cl]` in this test?
# output No

# input So what was the verdict on `Clc1nnc(Cl)c2ccccc12` in this test?
# output No

# input So what was the verdict on `CCCCCCCCCCOC(=O)c1ccccc1C(=O)OCCCCCCCC` in this test?
# output No

# input So what was the verdict on `O=[N+]([O-])c1cccc(C(F)(F)F)c1` in this test?
# output No

# input So what was the verdict on `ClCCl` in this test?
# output No

# input So what was the verdict on CCCCC(CC)CN1CN(CC(CC)CCCC)CC(C)(N)C1 (stereo not drawn) in this test?
# output No

# input So what was the verdict on `CCCCCCCCCCCCCC[N+](C)(C)Cc1ccccc1` in this test?
# output No

# input So what was the verdict on CC(C)(C)c1ccc(C(O)CCCN2CCC(C(O)(c3ccccc3)c3ccccc3)CC2)cc1 (stereo not drawn) in this test?
# output No

# input So what was the verdict on C=CC(C)(CCC=C(C)C)OC=O (stereo not drawn) in this test?
# output No

# input So what was the verdict on CCC(C)n1ncn(-c2ccc(N3CCN(c4ccc(OC[C@H]5CO[C@](Cn6cncn6)(c6ccc(Cl)cc6Cl)O5)cc4)CC3)cc2)c1=O (stereo partly drawn) in this test?
# output No

# input So what was the verdict on `OCCN1CCN(CCCN2c3ccccc3Sc3ccc(C(F)(F)F)cc32)CC1` in this test?
# output No

# input So what was the verdict on `Cc1ccc(N/N=c2\c(=O)cc/c(=N\Nc3ccc(S(=O)(=O)O)cc3)c2=O)c(C)c1` in this test?
# output No
